Protocol: Quantitative High-Throughput drug screen in 47 multiple myeloma cell lines against the NCATS MIPE library collection: JIM3_ECACC cell viability assay (AID 1918963; further: nearly all actives have a fitted effect of over 35% in size; further: potency means the concentration at half of the fitted maximal effect)
Applied Conditions: JIM3 myeloma viability, CellTiter-Glo ATP, 48 h; series mostly up to 45.8 µM
Inconclusive results are not listed. Calls of active or inactive are those of the source. The call rests on the fitted dose curve; in most records, active means well fitted cell-killing curve with a large enough effect; inconclusive means small, poorly fitted or top-dose-only effect; inactive means no such curve, though single readings can be large or run the other way.
Quantity Measured: Potency

- COc1ccc(CCC(=O)c2c(O)cc(O[C@@H]3O[C@H](CO)[C@@H](O)[C@H](O)[C@@H]3O[C@@H]3O[C@@H](C)[C@H](O)[C@@H](O)[C@@H]3O)cc2O)cc1O: 18.7 µM (active)
- C[C@H](NCc1ccc(OCc2cccc(F)c2)cc1)C(N)=O: 2.96 µM (active)
- Cc1ccc(O)c(C(CCN(C(C)C)C(C)C)c2ccccc2)c1 (centres undefined): inactive
- Cc1cn([C@@H]2O[C@H](CO)[C@@H](O)[C@H]2F)c(=O)[nH]c1=O: inactive

----------
Protocol: Quantitative High-Throughput drug screen in 47 multiple myeloma cell lines against the NCATS MIPE library collection: KMM1_JCRB cell viability assay (AID 1918960); further: nearly all actives have a fitted effect of over 30% in size; further: potency means the concentration at half of the fitted maximal effect
Applied Conditions: KMM1 myeloma viability, CellTiter-Glo ATP luminescence, 48 h; series mostly up to 45.8 µM
Records with an inconclusive call do not appear. Active and inactive are the calls of the source. Calls follow the shape of the dose curve; as a rule, active = well fitted cell-killing curve with a large enough effect; inconclusive = small, poorly fitted or top-dose-only effect, or effect the other way; inactive = no such curve, though single readings can be large or run the other way. Positions of bridges follow the written chain, without caps; N, C: chain ends. Non-standard residues stand in square brackets, D forms with d. Residues, ends and D or L forms follow the SMILES beside them. ξ: configuration not given here. *: point of attachment. Octanoyl(6-Me) = CCC(C)CCCCC(=O)*; ξThr(3R) = C[C@@H](O)C(N)C(=O)O; dDab = NCC[C@@H](N)C(=O)O; Dab = NCC[C@H](N)C(=O)O
Quantity Measured: Potency

• O=C1NCCc2[nH]c(-c3ccncc3)cc21 = 1050 nM (active)
• CC(C=CC=C(C)C=CC1=C(C)CCCC1(C)C)=CC=CC=C(C)C=CC=C(C)C=CC1=C(C)CCCC1(C)C = inactive
• NC[C@H]1O[C@H](O[C@H]2[C@@H](O)[C@@H](O[C@H]3O[C@H](CO)[C@@H](O)[C@H](N)[C@@H]3O)[C@H](N)C[C@@H]2N)[C@H](N)C[C@H]1O = inactive
• CCC(C)CCCCC(=O)N[C@@H](CCN)C(=O)NC(C(=O)N[C@H](CCN)C(=O)N[C@@H]1CCNC(=O)C([C@@H](C)O)NC(=O)[C@@H](CCN)NC(=O)[C@@H](CCN)NC(=O)[C@@H](CC(C)C)NC(=O)[C@H](Cc2ccccc2)NC(=O)[C@H](CCN)NC1=O)[C@@H](C)O (stereo partly drawn) ({Octanoyl(6-Me)}-[Dab][ξThr(3R)][dDab][dDab][Dab]F[dL][dDab][dDab][ξThr(3R)]; lactam 4-C) = inactive

## Task What Potency value was documented for this compound, Cn1cc(-c2cnn3c(N)c(Br)c([C@H]4CCCNC4)nc23)cn1 ?
## Result 372 nM (active)

## Task Next compound: Cc1noc(-c2ccc(CSCCC(=O)O)cc2)c1NC(=O)OC(C)c1ccccc1Cl (stereo unspecified)
## Result inactive

----------
Protocol: Quantitative High-Throughput drug screen in 47 multiple myeloma cell lines against the NCATS MIPE library collection: Karpas620_DSMZ cell viability assay (AID 1918959); further: nearly all actives have a fitted effect of over 30% in size
Applied Conditions: Karpas620 myeloma viability, CellTiter-Glo ATP luminescence, 48 h; series mostly up to 45.8 µM
Results filed as inconclusive are left out. Active and inactive are the calls of the source. Calls follow the shape of the dose curve; as a rule, active = well fitted cell-killing curve with a large enough effect; inconclusive = small, poorly fitted or top-dose-only effect, or effect the other way; inactive = no such curve, though single readings can be large or run the other way.
Entry note: the call must match one of 1 (active), -1 (inactive)

## Task Could you check what this test reported for C[C@]12C=CC(=O)N[C@@H]1CC[C@H]1[C@H]3CC[C@@H](C(=O)Nc4cc(C(F)(F)F)ccc4C(F)(F)F)[C@@]3(C)CC[C@@H]12 ?
## Result -1

## Task Next molecule: c1ccc(CNc2nc(NCc3ccccc3)c3ccccc3n2)cc1
## Result 1

## Task Next molecule: NC(=O)c1ncn([C@@H]2O[C@H](CO)[C@@H](O)[C@@H]2O)c1O
## Result -1

## Task Next molecule: CC(C)[C@H](CO)Nc1nc(Nc2cccc(Cl)c2)c2ncn(C(C)C)c2n1
## Result -1

## Task Next molecule: CC(Cc1ccc(O)c(O)c1)(NN)C(=O)O (centres undefined)
## Result -1

## Task Next molecule: C[C@@]12C[C@@]3(O)O[C@@H](O1)[C@]1(COC(=O)c4ccccc4)[C@@H]3C[C@@]12O[C@@H]1O[C@H](CO)[C@@H](O)[C@H](O)[C@@H]1O
## Result -1

## Task Next molecule: C[C@H](NCc1ccc(OCc2cccc(F)c2)cc1)C(N)=O
## Result 1

## Task Next molecule: C=C1C[C@@]2(O)O[C@@]3(C[C@H]2C(C)C)[C@H](C)CC[C@H]13
## Result -1

## Task Next molecule: Oc1ccc(-c2ccc(-c3cc(Nc4cccc(CNC5CC5)c4)n[nH]3)cc2)c(O)c1
## Result 1

## Task Next molecule: CN1C(C(=O)Nc2ccccn2)=C(O)c2sc(Cl)cc2S1(=O)=O
## Result -1

## Task Next molecule: O=C1NC(=O)C(=Cc2ccc3nccc(-c4ccncc4)c3c2)S1
## Result 1

## Task Next molecule: CC(C)(O)[C@H]1CC[C@@](C)([C@H]2[C@@H](O)C[C@@]3(C)[C@@H]4C[C@H](O[C@@H]5O[C@H](CO)[C@@H](O)[C@H](O)[C@@H]5O)[C@H]5C(C)(C)[C@@H](O[C@@H]6OC[C@@H](O)[C@H](O)[C@@H]6O)CC[C@@]56C[C@@]46CC[C@]23C)O1
## Result -1

## Task Next molecule: C=CCNC1=C2C[C@@H](C)C[C@H](OC)[C@@H](O)[C@@H](C)C=C(C)[C@H](OC(N)=O)[C@@H](OC)C=CC=C(C)C(=O)NC(=CC1=O)C2=O
## Result 1

## Task Next molecule: CCCCCCCCc1ccc(CCC(N)(CO)CO)cc1
## Result 1

## Task Next molecule: Cc1ccccc1C(=O)Nc1ccc(C(=O)N2CCCC(O)c3cc(Cl)ccc32)c(C)c1 (centres undefined)
## Result -1

## Task Next molecule: CC(=O)SCC(Cc1ccccc1)C(=O)NCC(=O)OCc1ccccc1 (centres undefined)
## Result 1

## Task Next molecule: C[C@H](NC(=O)C(C#N)=Cc1cccc(Br)n1)c1ccccc1
## Result 1

## Task Next molecule: Nc1nc2c(c(=O)[nH]1)N(C=O)[C@H](CNc1ccc(C(=O)N[C@@H](CCC(=O)O)C(=O)O)cc1)CN2
## Result -1

## Task Next molecule: CN1CCCN(C(=O)c2cccc(-c3ccc(C=C4C(=O)Nc5ccc(Cl)cc54)o3)c2)CC1
## Result 1
